Target: Sodium channel protein type 5 subunit alpha (Homo sapiens, UniProt Q14524)
Sequence (Q14524 whole entry): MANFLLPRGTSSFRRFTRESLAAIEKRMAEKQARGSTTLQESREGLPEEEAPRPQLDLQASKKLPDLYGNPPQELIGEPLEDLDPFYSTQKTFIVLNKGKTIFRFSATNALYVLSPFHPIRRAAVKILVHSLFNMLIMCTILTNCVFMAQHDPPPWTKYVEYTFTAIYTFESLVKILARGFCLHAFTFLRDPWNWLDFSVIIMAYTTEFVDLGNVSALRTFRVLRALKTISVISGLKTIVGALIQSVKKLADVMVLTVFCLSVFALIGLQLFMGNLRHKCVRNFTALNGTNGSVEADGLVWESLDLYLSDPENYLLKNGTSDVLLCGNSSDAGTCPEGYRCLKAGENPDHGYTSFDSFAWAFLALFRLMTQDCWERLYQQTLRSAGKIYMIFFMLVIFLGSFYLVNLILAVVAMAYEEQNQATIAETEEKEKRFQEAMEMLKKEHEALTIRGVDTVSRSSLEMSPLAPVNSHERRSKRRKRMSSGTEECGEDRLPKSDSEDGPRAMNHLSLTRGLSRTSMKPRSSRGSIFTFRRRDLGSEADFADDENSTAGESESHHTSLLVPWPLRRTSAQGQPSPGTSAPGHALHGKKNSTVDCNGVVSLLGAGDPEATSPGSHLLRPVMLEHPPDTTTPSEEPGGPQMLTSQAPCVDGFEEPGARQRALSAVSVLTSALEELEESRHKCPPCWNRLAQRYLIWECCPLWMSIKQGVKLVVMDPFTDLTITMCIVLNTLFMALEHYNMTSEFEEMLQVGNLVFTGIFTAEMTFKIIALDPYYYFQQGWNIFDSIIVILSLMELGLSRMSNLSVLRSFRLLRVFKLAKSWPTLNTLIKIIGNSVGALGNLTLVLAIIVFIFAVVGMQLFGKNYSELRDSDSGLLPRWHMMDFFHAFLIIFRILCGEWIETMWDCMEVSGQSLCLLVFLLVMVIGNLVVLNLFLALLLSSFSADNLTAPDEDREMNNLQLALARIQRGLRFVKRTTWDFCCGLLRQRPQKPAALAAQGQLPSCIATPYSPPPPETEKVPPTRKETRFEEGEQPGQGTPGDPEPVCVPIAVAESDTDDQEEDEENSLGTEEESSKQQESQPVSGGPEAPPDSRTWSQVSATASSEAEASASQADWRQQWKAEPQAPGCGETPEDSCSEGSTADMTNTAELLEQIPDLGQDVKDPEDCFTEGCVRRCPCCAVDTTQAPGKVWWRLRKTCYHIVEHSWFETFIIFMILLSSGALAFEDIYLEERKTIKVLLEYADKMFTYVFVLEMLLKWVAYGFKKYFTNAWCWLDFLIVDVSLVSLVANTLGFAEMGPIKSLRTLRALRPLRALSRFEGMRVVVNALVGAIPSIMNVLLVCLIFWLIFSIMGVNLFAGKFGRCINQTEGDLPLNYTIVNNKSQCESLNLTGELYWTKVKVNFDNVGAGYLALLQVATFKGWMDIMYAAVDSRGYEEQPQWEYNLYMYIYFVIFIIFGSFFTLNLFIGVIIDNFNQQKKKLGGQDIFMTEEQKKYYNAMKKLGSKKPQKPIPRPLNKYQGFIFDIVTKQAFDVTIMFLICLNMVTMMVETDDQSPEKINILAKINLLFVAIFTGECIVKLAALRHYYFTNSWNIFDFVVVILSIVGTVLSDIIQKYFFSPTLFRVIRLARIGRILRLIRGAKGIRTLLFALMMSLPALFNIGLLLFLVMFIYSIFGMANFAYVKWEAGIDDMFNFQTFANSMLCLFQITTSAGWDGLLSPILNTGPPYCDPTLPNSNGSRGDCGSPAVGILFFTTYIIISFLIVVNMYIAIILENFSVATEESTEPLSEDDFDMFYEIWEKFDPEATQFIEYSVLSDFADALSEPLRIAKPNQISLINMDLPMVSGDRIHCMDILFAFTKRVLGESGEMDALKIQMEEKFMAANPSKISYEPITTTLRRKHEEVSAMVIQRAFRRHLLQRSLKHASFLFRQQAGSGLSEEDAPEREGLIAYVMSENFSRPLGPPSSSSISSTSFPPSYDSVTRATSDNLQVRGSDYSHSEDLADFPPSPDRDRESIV
Assay: Inhibition of Nav1.5 (unknown origin)

{"COMPOUND": "CS(=O)(=O)c1ccc(-c2cnc(N)c(-c3ccc(C(F)(F)F)nc3)c2)cc1 [MMV-048]", "IC50": "> 10 µM"}

---

Tested on: Plasmodium vivax
Experiment: Antimalarial activity against Plasmodium vivax assessed as reduction in parasite growth after 72 hrs by SYBR-green based fluorescence assay
Format: functional, organism-based
pEC50: −log10 of the molar value.

{"COMPOUND": "CC1(C)c2nc(-c3ccc(F)cc3)c(Nc3ccc(F)cc3)n2CCN1C(=O)CN [GANAPLACIDE]", "pEC50": 8.26}

---

Experiment: Cmax in human at […], po and measured up to 96 to 144 hrs by LC-MS/MS analysis
Type: ADME, organism-based
Parameters: route oral
Settings: in vivo

{"SMILES_STR": "C[C@H]1Cc2c([nH]c3cc(Cl)c(F)cc23)[C@@]2(N1)C(=O)Nc1ccc(Cl)cc12", "Cmax, ng/mL": 2000}

---

Experiment: Plasma clearance in dog
Type: ADME, Canis lupus familiaris
OBSERVABLE: clearance (mL/min/kg)

{"SMILES_STR": "CS(=O)(=O)c1ccc(-c2cnc(N)c(-c3ccc(C(F)(F)F)nc3)c2)cc1", "MEASURED_NUMBER": 0.6}

---

Experiment: Oral bioavailability in Wistar Hannover rat at 10 mg/kg by LC-MS/MS analysis
Format: ADME, organism-based
Conditions: in vivo
Reported bioavailability values for a set of compounds
OBSERVABLE: bioavailability (%)

{"COMPOUND": "C[C@H]1Cc2c([nH]c3cc(Cl)c(F)cc23)[C@@]2(N1)C(=O)Nc1ccc(Cl)cc12", "MEASURED_NUMBER": 85}
{"COMPOUND": "CC1(C)c2nc(-c3ccc(F)cc3)c(Nc3ccc(F)cc3)n2CCN1C(=O)CN [GANAPLACIDE]", "MEASURED_NUMBER": 48}

---

Assay: Half life in human at 30 mg/kg, po
Details: in vivo

{"MOLECULE": "C[C@H]1Cc2c([nH]c3cc(Cl)c(F)cc23)[C@@]2(N1)C(=O)Nc1ccc(Cl)cc12 [CIPARGAMIN]", "UNIT_DESCRIPTOR": "h", "half-life": 20.8}

---

Assay: Half life in human infected with Plasmodium vivax at 400 mg administered for 3 consecutive days and measured up to 192 hrs
Assay type: ADME
Conditions: in vivo

{"COMPOUND": "CC1(C)c2nc(-c3ccc(F)cc3)c(Nc3ccc(F)cc3)n2CCN1C(=O)CN [GANAPLACIDE]", "half-life / h": 44}

---

Experiment: Half life in Beagle dog at 1 mg/kg, iv by LC-MS/MS analysis
Settings: in vivo

{"MOLECULE": "C[C@H]1Cc2c([nH]c3cc(Cl)c(F)cc23)[C@@]2(N1)C(=O)Nc1ccc(Cl)cc12 [CIPARGAMIN]", "half-life / h": 10.9}

---

Assay: Half life in human at 5 to 120 mg,po
Type: ADME
Details: in vivo

{"SMILES_STR": "CS(=O)(=O)c1ccc(-c2cnc(N)c(-c3ccc(C(F)(F)F)nc3)c2)cc1", "half-life": "163 to 252 h"}
